measurementName: melting point

• Cc1nc(CO)c2n1-c1ccc(Cl)cc1C(c1ccccc1Cl)=NC2 = 215 to 217 °C

Q: Return melting point (reported value) for this molecule: C=CCC(C)(C)CNc1cc(N2CCNCC2)nc(NCC(C)(C)CC=C)n1
A: 72 to 84 °C

Q: Return melting point (reported value) for this molecule: COc1ccc(NC(=O)CCCC(O)c2ccc(OC)cc2)cc1 (stereo not given)
A: 118 to 120 °C

Q: Return melting point (reported value) for this molecule: CS(=O)(=O)Oc1ccc2c(c1)CN(C(=O)CCCCCN1CCN(c3cccc(C(F)(F)F)c3)CC1)C2
A: 109 °C

Q: Return melting point (reported value) for this molecule: CC1(C)CC(=O)N(CC(CS(=O)(=O)c2ccc(-c3ccc(F)cc3)cc2)N(O)C=O)C(=O)C1 (stereo not given)
A: 105 to 109 °C

Q: Return melting point (reported value) for this molecule: CCCCCCCCN1C(=O)NC2(CC(C)(CC)N(CCOC(=O)c3ccccc3)C(C)(CC)C2C)C1=O (stereo not given)
A: 123 to 124 °C

Q: Return melting point (reported value) for this molecule: COc1cc(C(=O)N2CCN(C(=O)C3=Cc4cc(O)c(O)cc4CCC3)CC2)cc(OC)c1OC
A: 206 to 207 °C

Q: Return melting point (reported value) for this molecule: CSc1ccc(-c2nnc(Cl)cc2-c2ccccc2)cc1
A: 158 °C

Q: Return melting point (reported value) for this molecule: COC(=O)c1ccc2nc(C(F)(F)F)c(S(C)(=O)=O)nc2c1
A: 143 to 144 °C

Q: Return melting point (reported value) for this molecule: CCCCCCCCCCCCOc1ccc(C2=C(O)CSC2=O)cc1
A: 173 to 175 °C

Q: Return melting point (reported value) for this molecule: O=C1c2ccccc2C=C(Cl)Cc2ccccc21
A: 109 to 110 °C
